# Assayed target: Peptide deformylase (Staphylococcus aureus subsp. aureus Mu50, UniProt P68825)
# Sequence (P68825 whole entry): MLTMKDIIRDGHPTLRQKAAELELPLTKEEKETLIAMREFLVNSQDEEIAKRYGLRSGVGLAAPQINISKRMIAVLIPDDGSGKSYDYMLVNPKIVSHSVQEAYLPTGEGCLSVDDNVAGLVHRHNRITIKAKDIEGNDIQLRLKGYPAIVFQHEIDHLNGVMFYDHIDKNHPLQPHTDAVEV
Endpoint name: IC50

Known IC50 results, listed for orientation:
>>> meas_value("O=C(NO)C(NCc1cccc(C(F)(F)F)c1)c1ccc(F)c(F)c1 (centres undefined)")
"0.69 µM"
>>> meas_value("O=C(CO)N(CCc1cccc(C(F)(F)F)c1)c1cccc2ccccc12")
"> 100 µM"
>>> meas_value("NNC(=O)N(CCc1cccc(C(F)(F)F)c1)c1cccc2ccccc12")
"> 100 µM"

Endpoint output: IC50 of CC(=O)NO [ACETOHYDROXAMIC ACID] . Value?
> 100 µM

---

# Tested on: Staphylococcus aureus
# Protocol: Antibacterial activity against Staphylococcus aureus (SAUR) 9218
# Assay type: functional
Endpoint name: MIC (µg/mL)

P. NC(=O)C(NCc1cccc(C(F)(F)F)c1)c1cccc2ccccc12 (stereo not given)
Q. O=C(NO)N(CCc1cccc(C(F)(F)F)c1)c1cccc2ccccc12
Between P and Q , whose measured MIC reads higher? Field: selected label. Fill in the label of the entry you choose.
P

---

# Test system: Staphylococcus aureus
# Protocol: Antibacterial activity against Staphylococcus aureus (SAUR) 9218
# Type: functional
Endpoint name: MIC

>>> meas_value("O=C(O)C(NCc1cccc(C(F)(F)F)c1)c1cccc2ccccc12 (stereo not drawn)")
"> 128 µg/mL"
>>> meas_value("COc1cc(Cl)c(CC(=O)NO)cc1OC")
"> 32 µg/mL"

Endpoint output: MIC of O=C(NO)C(NCc1cccc(C(F)(F)F)c1)c1ccc(F)c(F)c1 (stereo not drawn) . Value?
> 128 µg/mL
